All values here come from patent US10034886B2.

biological target: GLP-1R (Homo sapiens, UniProt P43220); construct: host or cells: GLP-1R CRE-bla CHO-K1 cells; assay: EC20 GLP-1(9-36) PAM cAMP assay: dose response of compound in the presence of fixed concentration of GLP-1(9-36); type: cell-based; details: dose response of compound in presence of fixed concentration of GLP-1(9-36), GLP-1R CRE-bla CHO-K1 cells, read-out: EC20 GLP-1(9-36) PAM EC50
Sequence (P43220 24-463): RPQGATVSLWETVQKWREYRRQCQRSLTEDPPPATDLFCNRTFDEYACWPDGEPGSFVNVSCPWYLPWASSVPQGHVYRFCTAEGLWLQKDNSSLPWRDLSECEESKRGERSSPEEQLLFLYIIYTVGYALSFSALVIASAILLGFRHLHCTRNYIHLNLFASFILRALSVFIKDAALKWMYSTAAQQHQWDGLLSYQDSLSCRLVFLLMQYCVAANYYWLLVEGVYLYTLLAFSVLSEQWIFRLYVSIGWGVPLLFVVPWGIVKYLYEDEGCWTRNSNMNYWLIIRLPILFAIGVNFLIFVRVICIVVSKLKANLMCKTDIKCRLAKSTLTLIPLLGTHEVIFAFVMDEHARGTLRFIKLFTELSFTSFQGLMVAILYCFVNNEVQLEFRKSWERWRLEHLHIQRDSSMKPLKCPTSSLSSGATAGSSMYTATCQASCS
Sequence (P01275 100-127 partner limits assumed): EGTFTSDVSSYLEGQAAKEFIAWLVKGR
pEC50: −log10 of the molar value.
measurement.kind: pEC50

Give pEC50 (GLP-1R (Homo sapiens, UniProt P43220)) of the following molecule: CCCCCCCOc1ccc(-c2cnc(-c3ccc(C[C@H](NC(=O)c4ccn(C(C)(C)C)c4)C(=O)N4CC[C@H](C(=O)O)C4)cc3)nc2)cc1 > 6.10

Try the molecule CCCCCCCOc1ccc(-c2cnc(-c3ccc(C[C@H](NC(=O)c4ccc(C(C)(C)C)cc4)C(=O)NC(CC(=O)O)c4ccccc4O)cc3)nc2)cc1 (stereo partly drawn) 5.60 to 6.10

Try the molecule CCCCCCCOc1ccc(-c2cnc(-c3ccc(C[C@H](NC(=O)c4ccc(C(C)(C)C)s4)C(=O)N(CC)CCO)cc3)nc2)cc1 5.30 to 5.60

Try the molecule CCCCCCCOc1ccc(-c2cnc(-c3ccc(C[C@H](NC(=O)Cc4ccc(OCCCC)cc4)C(=O)N4CC(C(=O)O)C4)cc3)nc2)cc1 5.60 to 6.10

Try the molecule CCCCCCCOc1ccc(-c2cnc(-c3ccc(C[C@H](NC(=O)c4ccc(C(C)(C)C)cc4)C(=O)NC(C)CC(=O)O)cc3)nc2)cc1 (stereo partly drawn) 5.00 to 5.30

Try the molecule CCCCCCCOc1ccc(-c2cnc(-c3ccc(C[C@H](NC(=O)c4ccc5c(c4)OCCO5)C(=O)N[C@H](C)C(=O)O)cc3)nc2)cc1 5.60 to 6.10

Try the molecule CC(C)CCCOc1ccc(-c2cnc(-c3ccc(C[C@H](NC(=O)c4ccc(C(C)(C)C)s4)C(=O)NC(C(=O)O)C(O)c4ccccc4)cc3)nc2)cc1 (stereo partly drawn) 5.30 to 5.60

Try the molecule CCCCCCCOc1ccc(-c2cnc(-c3ccc(C[C@H](NC(=O)c4ccc(C(C)(C)C)cc4)C(=O)N[C@@H](CC(=O)O)C(N)=O)cc3)nc2)cc1 > 6.10

Try the molecule CCCCCCCOc1ccc(-c2cnc(-c3ccc(C[C@H](NC(=O)c4ccc(C(C)C)cc4)C(=O)N4CC[C@H](C(=O)O)C4)cc3)nc2)cc1 5.60 to 6.10

Try the molecule CCOc1cc(-c2cnc(-c3ccc(C[C@H](NC(=O)c4ccc(C(C)(C)C)s4)C(=O)N[C@H](C)C(=O)O)cc3)nc2)cc(C(F)(F)F)c1 5.30 to 5.60

Try the molecule CCCCc1ccc(-c2ccc(-c3cnc(-c4ccc(C[C@H](NC(=O)c5ccc(C(C)(C)C)s5)C(=O)N[C@H](C)C(=O)O)cc4)nc3)cc2)cc1 5.60 to 6.10

Try the molecule CC[C@H]1CC[C@H](c2ccc(N3CCN(c4ccc(C[C@H](NC(=O)c5ccc(C(C)(C)C)s5)C(=O)N5CC(C(=O)O)C5)cc4)CC3)cc2)CC1 5.30 to 5.60

---

Would you kindly list EC50 for each of these compounds?
biological target: GLP-1R (Homo sapiens); construct: host or cells: GLP-1R CRE-bla CHO-K1 cells; test: EC20 GLP-1(9-36) PAM cAMP assay: dose response of compound in the presence of fixed concentration of GLP-1(9-36); assay type: cell-based; conditions: GLP-1R CRE-bla CHO-K1 cells, compound dose response with fixed concentration of GLP-1(9-36), read-out: EC20 GLP-1(9-36) PAM EC50

Bench note: what EC50 did CC(C)(C)c1ccc(C(=O)N[C@@H](Cc2ccc(-c3ncc(N4CCC(c5ccccc5)CC4)cn3)cc2)C(=O)N2CC(C(=O)O)C2)s1 show? 0.8 to 2.5 µM

Try the compound CCC[C@H]1CC[C@H](C2CCN(c3cnc(-c4ccc(CC(NC(=O)c5ccc(C(C)(C)C)s5)C(=O)NS(=O)(=O)CC(=O)OC)cc4)nc3)CC2)CC1 (stereo partly drawn) < 0.8 µM

Try the compound CCc1ccc(C(=O)N[C@@H](Cc2ccc(-c3ncc(-c4ccc(OCCCC(C)C)cc4)cn3)cc2)C(=O)N2CC(C(=O)O)C2)s1 0.8 to 2.5 µM

Try the compound CCc1ccc(-c2ccc(-c3cnc(-c4ccc(C[C@H](NC(=O)c5ccc(C(C)(C)C)s5)C(=O)N[C@H](C)C(=O)O)cc4)nc3)cc2)cc1 < 0.8 µM

Try the compound CCC[C@H]1CC[C@H](C2CCN(c3cnc(-c4ccc(C[C@H](NC(=O)c5ccn(C(C)(C)C)c5)C(=O)N5CC(C(=O)O)C5)cc4)nc3)CC2)CC1 < 0.8 µM

Try the compound COc1ccc(-c2ccc(-c3cnc(-c4ccc(C[C@H](NC(=O)c5ccc(C(C)(C)C)s5)C(=O)N5CC(C(=O)O)C5)cc4)nc3)c(F)c2)cc1 < 0.8 µM

---

target: GLP-1R (Homo sapiens, UniProt P43220); construct: host or cells: GLP-1R CRE-bla CHO-K1 cells; experiment: EC20 GLP-1(9-36) PAM cAMP assay: dose response of compound in the presence of fixed concentration of GLP-1(9-36); format: cell-based; details: GLP-1R CRE-bla CHO-K1 cells, compound dose response with fixed concentration of GLP-1(9-36), read-out: EC20 GLP-1(9-36) PAM EC50
measurement.kind: EC50

Bench note: what EC50 did CCC[C@H]1CC[C@H](C2CCN(c3cnc(-c4ccc(CC(NC(=O)c5ccc(C(C)(C)C)s5)C(=O)NS(=O)(=O)C(C)(C)C)cc4)nc3)CC2)CC1 (some centres unmarked) show? < 800 nM

Try the compound CC[C@H]1CC[C@@H](c2ccc(-c3cnc(-c4ccc(C[C@H](NC(=O)c5ccc(C(C)(C)C)s5)C(=O)O)cc4)nc3)c(F)c2)CC1 < 800 nM

Try the compound CC(C)(C)c1ccc(C(=O)N[C@@H](Cc2ccc(-c3ncc(N4CCC(c5ccc(C(F)(F)F)cc5)CC4)cn3)cc2)C(=O)N2CC(C(=O)O)C2)s1 < 800 nM

Try the compound CC(C)(C)c1ccc(C(=O)N[C@@H](Cc2ccc(-c3ncc(-c4ccc(-c5ccc(OC(F)(F)F)cc5)cc4F)cn3)cc2)C(=O)O)s1 < 800 nM

Try the compound CCCCCOc1ccc(-c2ccc(-c3cnc(-c4ccc(C[C@H](NC(=O)c5ccc(C(C)(C)C)s5)C(=O)N[C@H](C)C(=O)O)cc4)nc3)cc2)cc1 800 to 2500 nM

Try the compound CC(=O)c1ccc(-c2ccc(-c3cnc(-c4ccc(C[C@H](NC(=O)c5ccc(C(C)(C)C)s5)C(=O)O)cc4)nc3)cc2)cc1 800 to 2500 nM

Try the compound CCCCCCCOc1ccc(-c2nnc(-c3ccc(CC(NC(=O)c4ccc(C(C)(C)C)cc4)C(=O)O)cc3F)s2)cc1 (stereo in doubt) 800 to 2500 nM

Try the compound CC[C@H]1CC[C@H](c2ccc(-c3cnc(-c4ccc(C[C@H](NC(=O)c5ccc(CC(C)C)cc5)C(=O)O)cc4)nc3)cc2)CC1 800 to 2500 nM

Try the compound CCC[C@H]1CC[C@H](C2CCN(c3cnc(-c4ccc(CC(NC(=O)c5ccc(C(C)(C)C)s5)C(=O)NS(=O)(=O)CCC5CCC5)cc4)nc3)CC2)CC1 (some centres unmarked) 800 to 2500 nM

Try the compound CC(C)(C)c1ccc(C(=O)N[C@@H](Cc2ccc(-c3ncc(-c4ccc(-c5cccc(OC(F)(F)F)c5)cc4F)cn3)cc2)C(=O)N2CC(C(=O)O)C2)s1 < 800 nM

Try the compound CCC[C@H]1CC[C@H](C2CCN(c3cnc(-c4ccc(CC(NC(=O)c5ccc(C(C)(C)C)s5)C(=O)NS(=O)(=O)CC(F)(F)F)cc4)nc3)CC2)CC1 (some centres unmarked) < 800 nM

---

Would you kindly list pEC50 for each of these compounds?
molecular target: GLP-1R (Homo sapiens, UniProt P43220); construct: host or cells: GLP-1R CRE-bla CHO-K1 cells; assay: EC20 GLP-1(9-36) PAM cAMP assay: dose response of compound in the presence of fixed concentration of GLP-1(9-36); format: cell-based; conditions: dose response of compound in presence of fixed concentration of GLP-1(9-36), GLP-1R CRE-bla CHO-K1 cells, read-out: EC20 GLP-1(9-36) PAM EC50
pEC50: −log10 of the molar value.

Bench note: what pEC50 did CCCCCCCOc1ccc(-c2cnc(-c3ccc(C[C@H](NC(=O)c4ccc(CCCC)cc4)C(=O)N4CC[C@H](C(=O)O)C4)cc3)nc2)cc1 show? 5.30 to 5.60

Try the compound CCCCCCc1noc(-c2ccc(-c3cnc(-c4ccc(C[C@H](NC(=O)c5ccc(C(C)(C)C)cc5)C(=O)NCCC(=O)O)cc4)nc3)cc2)n1 5.00 to 5.30

Try the compound CCCCCCCOc1ccc(-c2cnc(-c3ccc(C[C@H](NC(=O)c4ccc(C(C)(C)C)s4)C(=O)N4CC(C(=O)O)C4)cc3)nc2)cc1 > 6.10

Try the compound CCCCCCCOc1ccc(-c2cnc(-c3ccc(C[C@H](NC(=O)c4ccn(C(C)(C)C)c4)C(=O)N[C@H](C)C(=O)O)cc3)nc2)cc1 5.60 to 6.10

Try the compound CC1CCC(c2ccc(-c3cnc(-c4ccc(C[C@H](NC(=O)c5ccc(C(C)(C)C)s5)C(=O)N5CC(C(=O)O)C5)cc4)nc3)cc2)CC1 (stereo partly drawn) > 6.10

Try the compound CCCCCCCOc1ccc(-c2cnc(-c3ccc(C[C@H](NC(=O)Cc4ccc(OCCCC)cc4)C(=O)N4CC[C@H](C(=O)O)C4)cc3)nc2)cc1 5.30 to 5.60

Try the compound CC(C)CCCCOc1ccc(-c2cnc(-c3ccc(C[C@H](NC(=O)c4ccc(C(C)(C)C)s4)C(=O)N4CC[C@H](C(=O)O)C4)cc3)nc2)cc1 > 6.10

Try the compound CCCCCCCOc1ccc(-c2cnc(-c3ccc(C[C@H](NC(=O)c4ccc(C(C)(C)C)s4)C(=O)N4CCC[C@H]4C(=O)N4CC[C@@H](C(=O)O)C4)cc3)nc2)cc1 5.60 to 6.10

Try the compound CCCCCCCOc1ccc(-c2cnc(-c3ccc(C[C@H](NC(=O)c4ccc(S(C)(=O)=O)cc4)C(=O)N[C@H](C)C(=O)O)cc3)nc2)cc1 5.60 to 6.10

Try the compound CC(C)(C)CCOc1ccc(-c2cnc(-c3ccc(C[C@H](NC(=O)c4ccc(C(C)(C)C)s4)C(=O)N4CC(C(=O)O)C4)cc3)nc2)cc1 > 6.10

Try the compound CC(C)(C)COc1ccc(-c2cnc(-c3ccc(C[C@H](NC(=O)c4ccc(C(C)(C)C)s4)C(=O)N4CC(C(=O)O)C4)cc3)nc2)cc1 > 6.10

Try the compound CC(C)(C)COc1ccc(-c2cnc(-c3ccc(C[C@H](NC(=O)c4ccc(C(C)(C)C)s4)C(=O)N4CC[C@H](C(=O)O)C4)cc3)nc2)cc1 5.30 to 5.60
